The reported measurements were obtained from patent US20200392251A1.

# tested_target: human β-secretase 1 (BACE1), extracellular/catalytic domain (human) (UniProt P56817)
# Sequence (P56817 46-457 limits assumed, form in doubt): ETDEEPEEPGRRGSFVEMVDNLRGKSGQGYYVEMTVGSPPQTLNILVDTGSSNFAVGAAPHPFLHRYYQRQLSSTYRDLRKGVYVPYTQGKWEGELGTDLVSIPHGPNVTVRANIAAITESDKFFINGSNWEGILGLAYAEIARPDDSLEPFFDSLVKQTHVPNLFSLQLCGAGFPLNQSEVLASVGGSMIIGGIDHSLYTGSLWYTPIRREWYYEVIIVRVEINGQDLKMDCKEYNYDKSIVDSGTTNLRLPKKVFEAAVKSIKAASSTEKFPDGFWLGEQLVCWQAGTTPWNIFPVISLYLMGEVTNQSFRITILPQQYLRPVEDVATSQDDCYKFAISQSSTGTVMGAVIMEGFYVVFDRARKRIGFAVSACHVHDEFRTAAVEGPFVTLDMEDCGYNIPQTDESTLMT
# protocol_description: biolayer interferometry; biotinylated protease on streptavidin sensor, Fab in solution
reported_metric: pKd
Convention used: pKd is expressed as -log10 of the molar concentration.

The cases that follow already have their pKd on record.
anti-BACE1 Fab B2B3 (Fab, V domains shown) VH: EVQLVESGGGLVQPGGSLRLSCAASGFNISYSSIHWVRQAPGKGLEWVAYISSYSSSTYYADSVKGRFTISADTSKNTAYLQMNSLRAEDTAVYYCARSASGIDYWGQGTLVTVSS VL: DIQMTQSPSSLSASVGDRVTITCRASQSVSSAVAWYQQKPGKAPKLLIYSASSLYSGVPSRFSGSRSGTDFTLTISSLQPEDFATYYCQQSGYAPFTFGQGTKVEIKR | 7.00
anti-BACE1 Fab B2B2 (Fab, V domains shown) VH: EVQLVESGGGLVQPGGSLRLSCAASGFNISSYYMHWVRQAPGKGLEWVASIYSSYGYTYYADSVKGRFTISADTSKNTAYLQMNSLRAEDTAVYYCARYWGYYAWFGSHPWAYGAFDYWGQGTLVTVSS VL: DIQMTQSPSSLSASVGDRVTITCRASQSVSSAVAWYQQKPGKAPKLLIYSASSLYSGVPSRFSGSRSGTDFTLTISSLQPEDFATYYCQQYGYYLITFGQGTKVEIKR | 7.28
anti-BACE1 Fab B1A4 (Fab, V domains shown) VH: EVQLVESGGGLVQPGGSLRLSCAASGFNISYSSIHWVRQAPGKGLEWVAYISPSSSYTSYADSVKGRFTISADTSKNTAYLQMNSLRAEDTAVYYCARHYYVSVGSGIDYWGQGTLVTVSS VL: DIQMTQSPSSLSASVGDRVTITCRASQSVSSAVAWYQQKPGKAPKLLIYSASSLYSGVPSRFSGSRSGTDFTPTISSLQPEDFATYYCQQASASPYALITFGQGTKVEIKR | 7.68

What value of measured pKd is listed for anti-BACE1 Fab B2B5 (Fab, V domains shown) VH: EVQLVESGGGLVQPGGSLRLSCAASGFNIYYSYMHWVRQAPGKGLEWVASIYPYYGSTYYADSVKGRFTISADTSKNTAYLQMNSLRAEDTAVYYCARWHGYPPGYSYYSSFSSSGFDYWGQGTLVTVSS VL: DIQMTQSPSSLSASVGDRVTITCRASQSVSSAVAWYQQKPGKAPKLLIYSASSLYSGVPSRFSGSRSGTDFTPTISSLQPEDFATYYCQQSYFSYPITFGQGTKVEIKR ?
6.89

Moving on to anti-BACE1 Fab B1B3 (Fab, V domains shown) VH: EVQLVESGGGLVQPGGSLRLSCAASGFNISYYSMHWVRQAPGKGLEWVASISPYYGSTYYADSVKGRFTISADTSKNTAYLQMNSLRAEDTAVYYCARERSSCPVGWRDSRFGADGYGLEYWGQGTLVTVSS VL: DIQMTQSPSSLSASVGDRVTITCRASQSVSSAVAWYQQKPGKAPKLLIYSASSLYSGVPSRFSGSRSGTDFTLTISSLQPEDFATYYCQQSGHYHSLITFGQGTKVEIKR
7.51
